target: CD137 on Jurkat reporter cells (Promega kit CS196005) (UniProt Q07011); assay: cell-based or functional assay
Sequence (Q07011 24-255 limits assumed): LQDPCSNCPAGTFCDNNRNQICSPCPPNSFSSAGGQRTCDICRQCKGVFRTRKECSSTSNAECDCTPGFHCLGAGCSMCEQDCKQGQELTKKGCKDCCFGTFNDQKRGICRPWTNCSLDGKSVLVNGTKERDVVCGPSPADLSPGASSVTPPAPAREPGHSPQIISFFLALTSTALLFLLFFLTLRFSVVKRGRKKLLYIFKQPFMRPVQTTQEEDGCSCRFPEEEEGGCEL
Starred links: 1 amine or outer side, 2 acyl side, 3 side chain; linkers in the order of their positions; H or OH if unused. Positions of bridges follow the written chain, without caps; N, C: chain ends. Non-standard residues stand in square brackets, D forms with d. Chains are numbered I, II in the order given. No end group written: not given here. *: point of attachment. TATA = O=C(CC[*:1])N1CN(C(=O)CC[*:2])CN(C(=O)CC[*:3])C1; Dip = N[C@H](C(=O)O)C(c1ccccc1)c1ccccc1; Hyp = O=C(O)[C@@H]1C[C@@H](O)CN1; hArg = N=C(N)NCCCC[C@H](N)C(=O)O; tBuAla = CC(C)(C)C[C@H](N)C(=O)O; NMeA = CN[C@@H](C)C(=O)O; Nle = CCCC[C@H](N)C(=O)O; Pent4ynoyl = C#CCCC(=O)*; Mpa = O=C(O)CCS
Measured Emax (fold induction over background), PC3 (fold over background), listed per entry.
Please reply with the number alone, leaving off any unit.

Example results:
- Binder: "BCY13054 (linker I:4-I:11-I:18, II:1-II:8-II:15 via TATA; not fully specified (N-terminus, bridges); also: linker joins chain 1 to two chain 2 copies via PYA triazoles) peptide 1: A[hArg]DC[Hyp]LVNPLCL[Dip]P[dD]W[hArg]C peptide 2: Ac-C[tBuAla]PE[dK](Pent4ynoyl)PYCFADPY[Nle]CA"
  Recorded value: 36.5
- Binder: "BCY13140 (linker I:4-I:11-I:18, II:1-II:8-II:15 via TATA; not fully specified (N-terminus); also: linker joins chain 1 to two chain 2 copies via PYA triazoles) peptide 1: A[hArg]DC[Hyp]LVNPLCLEP[dD]WTC peptide 2: [Mpa][tBuAla]EE[dK](Pent4ynoyl)PYCFADPY[Nle]C"
  Recorded value: 46.7

Kindly review the next binder as well.
Sample BCY13276 (linker I:4-I:11-I:18, II:1-II:8-II:15 via TATA; not fully specified (N-terminus, bridges); also: linker joins chain 1 to two chain 2 copies via PYA triazoles) peptide 1: [NMeA][hArg]DC[Hyp]LVNPLCLEP[dD]WTC peptide 2: Ac-C[tBuAla]PE[dK](Pent4ynoyl)PYCFADPY[Nle]CA — what was its Emax (fold induction over background), PC3 (fold over background)?
50.5
